Each entry below lists one item and its recorded activation at 50 µM value.
# Tested on: isolated rat soleus nerve-muscle preparations
# assay details: Measurement of force in an in vitro model: recovery of nerve-stimulated contractile force after tubocurarine
# experimental context: 40 min, 50 μM of test compound, after 40 mins of compound exposure, tubocurarine (115 nM) for 90 minutes, read-out: Point increase (%): percentage increase of initial force that was restored
Use % as the unit, but write only the number.

CSc1c(Cl)cc2c(c1C(=O)O)CCC2
44

Kindly state the measured activation at 50 µM obtained for "O=C(O)c1c2c(cc(Cl)c1OC(F)(F)F)CCC2" with isolated rat soleus nerve-muscle preparations.
31

Write down the reported activation at 50 µM of "Cc1cc2c(c(C(=O)O)c1F)OCCC2" , test system: isolated rat soleus nerve-muscle preparations.
51

Identify the measured activation at 50 µM of "Cc1c(Cl)cc2c(c1C(=O)O)OCCC2" for isolated rat soleus nerve-muscle preparations.
39

State its activation at 50 µM on isolated rat soleus nerve-muscle preparations: COc1c(F)cc2c(c1C(=O)O)C(Cc1ccccc1)CCO2 (stereo not shown)
19

Observed activation at 50 µM on isolated rat soleus nerve-muscle preparations for "Cc1c(Cl)cc2c(c1C(=O)O)CCC2" , please.
23

For the record "O=C(O)c1c2c(cc(Cl)c1OCF)CCC2" , what value of activation at 50 µM is listed for isolated rat soleus nerve-muscle preparations?
36

// lookup activation at 50 µM | system=isolated rat soleus nerve-muscle preparations | key= "O=C(O)c1c(F)c(Cl)cc2c1OCC2"
25

Lab note: need activation at 50 µM for "COc1c(Cl)cc2c(c1C(=O)O)OCC2" on isolated rat soleus nerve-muscle preparations, anyone have it?
40

State its activation at 50 µM on isolated rat soleus nerve-muscle preparations: Cc1c(Cl)cc2c(c1C(=O)O)C1CCC2C1 (stereo not shown)
42

What reported activation at 50 µM corresponds to "O=C(O)c1c(F)c(I)cc2c1CCCC2" on isolated rat soleus nerve-muscle preparations?
42

Tell me reported activation at 50 µM for "COc1c(Cl)cc2c(c1C(=O)O)C1CCC2CC1" , tested with isolated rat soleus nerve-muscle preparations.
42

Record lookup: for isolated rat soleus nerve-muscle preparations, what activation at 50 µM belongs to "O=C(O)c1cc(Cl)c(F)c2c1CCCC2" ?
41

Short answer please: activation at 50 µM, isolated rat soleus nerve-muscle preparations, entry "Cc1cc2c(c(C(=O)O)c1F)CCCO2"
48

Test system isolated rat soleus nerve-muscle preparations; read-out activation at 50 µM; what value for "Cc1cc2c(c(C(=O)O)c1C)CCC2" ?
30

Lab note: need activation at 50 µM for "O=C(O)c1c(F)c(F)cc2c1CCCC2" on isolated rat soleus nerve-muscle preparations, anyone have it?
59

###

# tested system: CIC-1 ion channel (Rattus norvegicus, UniProt P35524)
# Construct: from tissue; host or cells: whole soleus muscle of 12-14 week old Wistar rats
# Sequence (P35524 1-994): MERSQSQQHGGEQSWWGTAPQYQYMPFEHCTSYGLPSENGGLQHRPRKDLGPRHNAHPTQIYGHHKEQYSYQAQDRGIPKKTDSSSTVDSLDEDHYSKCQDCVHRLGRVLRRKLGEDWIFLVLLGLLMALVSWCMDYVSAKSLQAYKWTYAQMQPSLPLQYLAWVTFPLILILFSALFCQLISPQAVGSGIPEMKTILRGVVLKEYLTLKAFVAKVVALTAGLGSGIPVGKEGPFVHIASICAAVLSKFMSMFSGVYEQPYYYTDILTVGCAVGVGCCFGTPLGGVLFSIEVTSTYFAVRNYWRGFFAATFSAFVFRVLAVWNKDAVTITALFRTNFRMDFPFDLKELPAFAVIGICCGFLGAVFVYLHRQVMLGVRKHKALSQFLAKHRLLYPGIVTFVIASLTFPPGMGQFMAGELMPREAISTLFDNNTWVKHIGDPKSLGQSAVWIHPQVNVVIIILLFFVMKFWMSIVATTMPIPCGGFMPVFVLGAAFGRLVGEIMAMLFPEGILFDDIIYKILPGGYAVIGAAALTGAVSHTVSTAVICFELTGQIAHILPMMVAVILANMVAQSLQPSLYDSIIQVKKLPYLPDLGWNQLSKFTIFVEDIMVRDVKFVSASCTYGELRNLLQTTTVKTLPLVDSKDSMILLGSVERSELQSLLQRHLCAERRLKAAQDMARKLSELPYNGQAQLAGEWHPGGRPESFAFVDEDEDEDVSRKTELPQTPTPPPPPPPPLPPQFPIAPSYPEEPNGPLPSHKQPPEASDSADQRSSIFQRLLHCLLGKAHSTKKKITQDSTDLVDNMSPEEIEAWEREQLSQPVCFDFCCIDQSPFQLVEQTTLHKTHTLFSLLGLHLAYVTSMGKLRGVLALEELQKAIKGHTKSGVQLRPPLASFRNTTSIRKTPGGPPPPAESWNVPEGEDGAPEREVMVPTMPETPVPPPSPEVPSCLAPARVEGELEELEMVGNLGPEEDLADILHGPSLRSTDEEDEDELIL
# assay details: Electrophysiological measurement of compound inhibition of CIC-1 in rat muscle (Gm in soleus fibres, three micro-electrodes)
# Assay type: cell-based
# experimental context: Gm in individual fibres of whole rat soleus muscles, approx. 30° C., four increasing compound concentrations; read-out: Potency Range (EC50, inhibition of CIC-1 ion channel)
# From the text: Apparent CIC-1 affinity was reported by the concentration of compound at which 50% of the compound's full inhibition of CIC-1 was observed (EC50) (see also WO2019/115777). […] To establish a dose response relationship, Gm was first determined in 10 muscle fibres in the absence of compound and then at four increasing compound concentrations with Gm determinations in 5-10 fibres at each concentration. […]
// values below are reported EC50

Cc1cc2c(c(C(=O)O)c1Cl)C1CCC2C1 (centres unmarked)
2000 to 10000 nM
CC1(C)CCc2cc(Cl)c(F)c(C(=O)O)c2O1
200 to 2000 nM
O=C(O)c1cc(Cl)c(F)c2c1CCCC2
10000 to 20000 nM
COc1c(C)cc2c(c1C(=O)O)CCC2
2000 to 10000 nM

Endpoint output: EC50 of "O=C(O)c1c(F)c(F)cc2c1SCCC2" . Value?
10000 to 20000 nM

# lookup: EC50 of "COc1c(Cl)cc2c(c1C(=O)O)CCCC2"
200 to 2000 nM

###

# System: isolated rat soleus nerve-muscle preparations
# assay details: Measurement of force in an in vitro model: recovery of nerve-stimulated contractile force after tubocurarine
# experimental context: 40 min, 25 μM of test compound, after 40 mins of compound exposure, tubocurarine (115 nM) for 90 minutes, read-out: Point increase (%): percentage increase of initial force that was restored
measured quantity: activation at 25 µM (%)
A number alone suffices; assume %.

O=C(O)c1c(F)c(Cl)cc2c1OCCC2Cc1ccccc1 (stereo not shown)
35

Dear colleague, I am looking for the recorded activation at 25 µM of the following compound: "O=C(O)c1c(Cl)c(F)cc2c1CCC2"
14

// query activation at 25 µM value for entry "O=C(O)c1c(Cl)c(F)cc2c1SCCC2"
34

Entry under review: "O=C(O)c1c(F)c(Cl)cc2c1CCN2Cc1ccccc1" . Reported activation at 25 µM?
45

###

# tested system: CIC-1 ion channel (Rattus norvegicus)
# assay details: Electrophysiological measurement of compound inhibition of CIC-1 in rat muscle (Gm in soleus fibres, three micro-electrodes)
# experimental context: Gm in individual fibres of whole rat soleus muscles, approx. 30° C., four increasing compound concentrations; read-out: Potency Range (EC50, inhibition of CIC-1 ion channel)
measured quantity: EC50

Cc1cc2c(c(C(=O)O)c1F)CCCC2
200 to 2000 nM
COc1c(Cl)cc2c(c1C(=O)O)OCCC2
200 to 2000 nM

Turning now to a further compound:
Bench note: what EC50 did "O=C(O)c1c(F)c(Cl)cc2c1NCCC2" show?
2000 to 10000 nM

###

# tested system: CIC-1 ion channel (Rattus norvegicus, UniProt P35524)
# Construct: from tissue; host or cells: whole soleus muscle of 12-14 week old Wistar rats
# assay details: Electrophysiological measurement of compound inhibition of CIC-1 in rat muscle (Gm in soleus fibres, three micro-electrodes)
# Type: cell-based
# experimental context: Gm in individual fibres of whole rat soleus muscles, approx. 30° C., four increasing compound concentrations; read-out: Potency Range (EC50, inhibition of CIC-1 ion channel)
measured quantity: EC50

Reference set, count: 5
COc1cc2c(c(C(=O)O)c1Cl)CCCCC2
2000 to 10000 nM
O=C(O)c1c(F)c(Cl)cc2c1OCCC2
2000 to 10000 nM
O=C(O)c1c(Cl)c(F)cc2c1CCCC2
2000 to 10000 nM
O=C(O)c1c(F)c(Cl)cc2c1CCCC2
200 to 2000 nM
COc1c(Cl)cc2c(c1C(=O)O)OCC2
2000 to 10000 nM

// returns reported EC50 for input "O=C(O)c1c(F)c(Cl)cc2c1N(Cc1ccccc1)CCC2"
200 to 2000 nM

Could you tell me which EC50 is on file for "Cc1cc2c(c(C(=O)O)c1F)SCCC2" ?
2000 to 10000 nM

Report EC50 for "Cc1c(F)cc2c(c1C(=O)O)CCCC2" please.
2000 to 10000 nM

Give its EC50 value. Item: "Cc1c(Cl)cc2c(c1C(=O)O)CCCCC2"
2000 to 10000 nM

Need EC50, item "O=C(O)c1c(F)c(Cl)cc2c1N(Cc1ccc(F)cc1)CCC2"
200 to 2000 nM

meta.source: patent US20260199273A1
